System: SK-MEL-5 melanoma
Test: NCI tumour cell line growth inhibition, 48 h
measured_endpoint: TGI

[[record]]
compound = "O=C(Oc1cc(=O)c(OC(=O)c2ccccc2)co1)c1ccccc1"
target_under_test = "SK-MEL-5 melanoma"
measured_endpoint = "TGI"
observed_measurement = "> 100 µM"

[[record]]
compound = "O=C(O)c1cc(-c2ccc3c(O)c(O)ccc3c2)ccc1O"
target_under_test = "SK-MEL-5 melanoma"
measured_endpoint = "TGI"
observed_measurement = "> 75 µM"

[[record]]
compound = "O=c1[nH]cnc(NC2C=C(CO)C(O)C2O)c1[N+](=O)[O-] (stereo not drawn)"
target_under_test = "SK-MEL-5 melanoma"
measured_endpoint = "TGI"
observed_measurement = "> 100 µM"


====

Test system: HL-60(TB) leukemia
Test: NCI tumour cell line growth inhibition, 48 h
Documented TGI across a set of compounds
measured_endpoint: TGI

[[record]]
molecule_smiles = "COc1cc(-c2cc(=O)c3cc4c(=O)cc(-c5cc(OC)c(OC)c(OC)c5)oc4cc3o2)cc(OC)c1OC"
observed_measurement = "> 100 µM"

[[record]]
molecule_smiles = "N#CCCN1C/C(=C/c2ccc(Br)cc2)C(=O)/C(=C/c2ccc(Br)cc2)C1"
observed_measurement = "> 100 µM"

[[record]]
molecule_smiles = "CC(C)(C)c1ccc2c(c1)S(=O)(=O)Nc1ccc(Cl)cc1NS(=O)(=O)c1cc(C(C)(C)C)ccc1OCCOCCOCCO2"
observed_measurement = "> 100 µM"


====

Test system: HS 578T breast
Assay: NCI tumour cell line growth inhibition, 48 h
// values below are reported TGI
measured_endpoint: TGI

[[record]]
compound = "C=C1c2cc3c(cc2CC12Cc1cc4c(cc1C2=O)CCC4)CCC3 (configuration not stated)"
target_under_test = "HS 578T breast"
observed_measurement = "> 100 µM"

[[record]]
compound = "NC(CC1=CS(=O)(=O)c2ccc(Cl)cc21)C(=O)O (configuration not stated)"
target_under_test = "HS 578T breast"
observed_measurement = "> 100 µM"

[[record]]
compound = "O=C(/C=C/c1ccccc1)c1ccccc1"
target_under_test = "HS 578T breast"
observed_measurement = "> 10 µM"

[[record]]
compound = "O=[N+]([O-])c1ccc(/C=C/c2cc(-c3ccccc3)nc3ccc4ccccc4c23)cc1"
target_under_test = "HS 578T breast"
observed_measurement = "> 100 µM"

[[record]]
compound = "COC(c1ccc(C(C)(C)C)cc1)(c1ccc(C(C)(C)C)cc1)c1ccc(C(C)(C)C)cc1"
target_under_test = "HS 578T breast"
observed_measurement = "> 100 µM"

[[record]]
compound = "C#CCOc1cccc(Nc2ncnc3c(NC(=O)C=C)cccc23)c1"
target_under_test = "HS 578T breast"
observed_measurement = "> 100 µM"

[[record]]
compound = "COc1cccc(/C=C/C(=O)c2c(C)nc3ccccc3c2/C=C/c2ccccc2)c1OC"
target_under_test = "HS 578T breast"
observed_measurement = "> 100 µM"

[[record]]
compound = "C[C@@H](Cl)[C@H]1CCCN(Cc2ccc(Br)cc2)C1"
target_under_test = "HS 578T breast"
observed_measurement = "> 12.5 µM"

[[record]]
compound = "CCOC(CNCCC(=O)OC)OCC"
target_under_test = "HS 578T breast"
observed_measurement = "> 10 µM"

[[record]]
compound = "Cc1ccc(OCCOCCOCCOCCOc2ccc(C)n(O)c2=S)c(=S)n1O"
target_under_test = "HS 578T breast"
observed_measurement = "> 100 µM"

[[record]]
compound = "COc1cc2nc(-c3cccs3)oc(=O)c2cc1OC"
target_under_test = "HS 578T breast"
observed_measurement = "> 100 µM"

[[record]]
compound = "COC(=O)c1c2c(cc3c1CCC3)CCC2"
target_under_test = "HS 578T breast"
observed_measurement = "> 100 µM"


====

Test system: SK-OV-3 ovarian
Assay: NCI tumour cell line growth inhibition, 48 h
Label yes for high-side TGI (at or above 50 µM) and no for low-side TGI (below it).

[[record]]
molecule = "c1ccc2c(c1)c1c(n2CCOCCN2CCOCC2)CCCC1"
discrete_label = "yes"

[[record]]
molecule = "CC1(C)C2CC(=O)C1(C)C(O)C2Br (stereo not given)"
discrete_label = "yes"

[[record]]
molecule = "O=C(CN(c1ccccc1)c1ccccc1)N1c2ccccc2C2C=CC=CC21 (stereo not given)"
discrete_label = "yes"

[[record]]
molecule = "CCN(CC)CCCNC(=O)c1ccc([N+](=O)[O-])cc1O"
discrete_label = "yes"

[[record]]
molecule = "CC1CN=C(N(C(=O)Nc2ccc(F)c(Cl)c2)c2ccccc2)S1 (stereo not given)"
discrete_label = "yes"

[[record]]
molecule = "O=C(CC(=O)C1CCOC1=O)C(=O)Nc1cccc(Cl)c1 (stereo not given)"
discrete_label = "yes"

[[record]]
molecule = "COC(=O)c1c2c(cc3c1CCC3)CCC2"
discrete_label = "yes"

[[record]]
molecule = "N#CCCN1C/C(=C/c2ccc(Br)cc2)C(=O)/C(=C/c2ccc(Br)cc2)C1"
discrete_label = "no"

[[record]]
molecule = "CC1CC(O)C(=O)C(O[C@@H]2C[C@@H]3CC[C@@H]4[C@H](CC[C@]5(C)C(C6=CC(=O)OC6)CC[C@]45O)[C@@]3(C=O)C[C@H]2O)O1 (stereo not given in full)"
discrete_label = "no"

[[record]]
molecule = "NNC1=N/C(=C\\c2ccco2)C(Cl)=N1"
discrete_label = "yes"

[[record]]
molecule = "COc1c(C)n(CCO)ccc1=O"
discrete_label = "yes"

[[record]]
molecule = "CCN1c2ccccc2-c2c3c1cc(C)cc3c1ccccc1[n+]2CC"
discrete_label = "no"

[[record]]
molecule = "CC(=O)Oc1cc(C(F)(F)F)ccc1C(=O)OC1(C)OC(=O)c2ccc(C(F)(F)F)cc2O1 (stereo not given)"
discrete_label = "yes"

[[record]]
molecule = "CC12CCC3C(CCC4CC(OC(=O)Cc5ccc(N(CCCl)CCCl)cc5)CCC43C)C1CCC(=O)N2 (stereo not given)"
discrete_label = "no"

[[record]]
molecule = "COc1cc2c(cc1OC)[C@H]1CN3CCC[C@H]3C=C1c1ccc(OC)c(O)c1-2"
discrete_label = "no"

[[record]]
molecule = "COc1cc2c(/C=N\\N=C(N)N)c[nH]c2cc1C"
discrete_label = "yes"

[[record]]
molecule = "COC(=O)C(=O)C(C(C)=O)C(=O)NCc1ccc(OC)c(OC)c1 (stereo not given)"
discrete_label = "yes"

[[record]]
molecule = "CC(C)=CCC/C(C)=C/COC(C)(C)C1=CCC(C)CC1 (stereo not given) (tested in a mixture with another compound)"
discrete_label = "yes"

[[record]]
molecule = "CCC1CN2CCc3cc(OC)c(OC)cc3C2CC1CC1c2cc(OC)c(OC)cc2CCN1C(=O)C1CCCN1 (stereo not given)"
discrete_label = "yes"

[[record]]
molecule = "N[C@H](CCC(=O)N[C@@H](Cc1c[nH]c2ccccc12)C(=O)O)C(=O)O"
discrete_label = "yes"

[[record]]
molecule = "COc1ccc(/C=C2\\C[C@H]3[C@@H]4CCC5=C/C(=N/O)CC[C@]5(C)[C@H]4CC[C@]3(C)\\C2=N\\O)cc1OC"
discrete_label = "yes"

[[record]]
molecule = "COc1cc2cc(Oc3ccc(NC(=O)c4cc(C(F)(F)F)cc(C(F)(F)F)c4)cc3)c(C)nc2cc1OC"
discrete_label = "yes"

[[record]]
molecule = "CCCc1cc(=O)n2c(C(=O)Nc3ccc(Cl)cc3C)c(C(=O)Nc3ccc(F)cc3)sc2n1"
discrete_label = "yes"


====

System: ACHN renal
Test: NCI tumour cell line growth inhibition, 48 h
Consider the following compounds and their measured TGI readings.
measured_endpoint: TGI

[[record]]
compound = "Cc1ccc(C)c(N2C/C(=N\\NC(=O)CC#N)C(c3nc4ccccc4s3)C(=O)C2=O)c1 (stereo unspecified)"
observed_measurement = "> 100 µM"

[[record]]
compound = "N#CC(=Nc1ccccc1N(C(=O)c1ccccc1)C(=O)c1ccccc1)c1ccccc1"
observed_measurement = "> 100 µM"

[[record]]
compound = "COc1ccc(-c2ccc3c(N4CCOC[C@@H]4C)nc(N4CCOC[C@@H]4C)nc3n2)cc1CO"
observed_measurement = "> 100 µM"

[[record]]
compound = "CCC(C)(O)c1cnc(CC(C)C)c(=O)n1O (stereo unspecified)"
observed_measurement = "> 100 µM"

[[record]]
compound = "CCc1ccc2c(c1)C(=O)c1c-2n(CCCN=[N+]=[N-])c(=O)c2cc([N+](=O)[O-])ccc12"
observed_measurement = "> 50 µM"

[[record]]
compound = "C=Cc1ccc(C)[n+](C[Si](C)(C)O[Si](C)(C)C[n+]2cc(C=C)ccc2C)c1"
observed_measurement = "> 100 µM"


====

Tested on: OVCAR-4 ovarian
Experiment: NCI tumour cell line growth inhibition, 48 h
measured_endpoint: TGI

[[record]]
compound = "COc1cc2nc(-c3cccs3)oc(=O)c2cc1OC"
target_under_test = "OVCAR-4 ovarian"
measured_endpoint = "TGI"
observed_measurement = "> 100 µM"

[[record]]
compound = "COC(=O)C1=COC(C)C2CN3CCc4c([nH]c5ccccc45)C3CC12 (stereo not given)"
target_under_test = "OVCAR-4 ovarian"
measured_endpoint = "TGI"
observed_measurement = "> 100 µM"

[[record]]
compound = "c1csc(-c2ccc(-c3cccs3)c3nsnc23)c1"
target_under_test = "OVCAR-4 ovarian"
measured_endpoint = "TGI"
observed_measurement = "> 100 µM"

[[record]]
compound = "COc1ccc(-c2cnnn2-c2nonc2-n2cccc2)cc1"
target_under_test = "OVCAR-4 ovarian"
measured_endpoint = "TGI"
observed_measurement = "> 100 µM"

[[record]]
compound = "CC1(C)CN=C(NN=C(/C=C/c2ccc(C(F)(F)F)cc2)/C=C/c2ccc(C(F)(F)F)cc2)NC1"
target_under_test = "OVCAR-4 ovarian"
measured_endpoint = "TGI"
observed_measurement = "2.72 µM"

